Recorded values, source patent US20240270740A1.

pIC50 reference
molecular target: hcGAS (Homo sapiens, UniProt Q8N884); test: hcGAS LCMS assay (direct measurement of cGAMP production); format: biochemical; conditions: 0.5 nM hcGAS, 100 μM ATP, 100 μM GTP, 25 nM dsDNA, 4 h incubation
Sequence (Q8N884 whole entry): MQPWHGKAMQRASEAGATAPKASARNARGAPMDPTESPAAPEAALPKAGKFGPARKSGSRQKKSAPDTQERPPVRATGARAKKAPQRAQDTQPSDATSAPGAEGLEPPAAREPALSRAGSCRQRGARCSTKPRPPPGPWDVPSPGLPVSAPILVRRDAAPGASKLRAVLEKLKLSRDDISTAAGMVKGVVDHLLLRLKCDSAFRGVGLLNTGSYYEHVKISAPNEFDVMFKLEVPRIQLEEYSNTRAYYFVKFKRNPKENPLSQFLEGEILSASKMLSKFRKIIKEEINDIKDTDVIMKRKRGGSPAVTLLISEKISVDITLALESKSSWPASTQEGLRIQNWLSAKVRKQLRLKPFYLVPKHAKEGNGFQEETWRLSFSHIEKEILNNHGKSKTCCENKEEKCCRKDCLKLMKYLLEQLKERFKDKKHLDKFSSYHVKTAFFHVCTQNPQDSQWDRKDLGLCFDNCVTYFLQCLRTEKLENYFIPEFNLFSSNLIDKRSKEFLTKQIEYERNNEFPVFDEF
pIC50: −log10 of the molar value.

Consider the worked cases shown below.
{"columns": ["molecule", "target_or_test_system", "pIC50"],
 "data": [
  ["COc1c(N[C@@H]2CCOC2)cc(C(=O)Nc2nnc(-n3nccc3C)s2)oc1=O", "hcGAS (Homo sapiens, UniProt Q8N884)", "7.22 to 7.70"],
  ["COc1c(N[C@H]2CC[C@@H](O)CC2)cc(C(=O)Nc2nnc(-n3nccc3C)s2)oc1=O", "hcGAS (Homo sapiens, UniProt Q8N884)", "7.70 to 8.30"],
  ["COc1c(N[C@@H]2CCN(C)C2=O)cc(C(=O)Nc2nnc(-n3nccc3C)s2)oc1=O (single isomer, unassigned)", "hcGAS (Homo sapiens, UniProt Q8N884)", "7.70 to 8.30"]
]}

State the recorded pIC50 for this entry: COC[C@@H](Nc1cc(C(=O)Nc2nnc(-n3nccc3C)s2)oc(=O)c1OC)c1ccccc1OC (single isomer, unassigned)
> 8.30

Query Nc1ccnn1-c1nnc(NC(=O)c2cc(NC34CC(C3)C4)c(OCCO)c(=O)o2)s1 next
> 8.30

Query COCCOc1c(N[C@@H](COC)c2ccccc2)cc(C(=O)Nc2nnc(-n3nccc3C)s2)oc1=O next
> 8.30

Query COC[C@@H]1CCC[C@@H]1Nc1cc(C(=O)Nc2nnc(-n3nccc3C)s2)oc(=O)c1OC (single isomer, unassigned) next
6.70 to 7.22
